# Target or test system: Neurotensin receptor type 2 (Homo sapiens)
# Assay info: beta-arrestin recruitment via NTR2 activation – imaging, NTR2-U2OS cells, beta-arrestin GFP imaging, selectivity assay for NTR1 agonist project, SAR follow-up (AID 588495)
# Condition description: image-based GFP translocation
Active and inactive are the calls of the source.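 The calls were made as follows: active = mean EC50 of 20 µM or lower; inactive = the rest.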
Outcomes: active, inactive

Chemical smiles: COc1ccc(Cn2c(SCc3ccc(C)cc3)nc3cc(OC)c(OC)cc3c2=N)cc1Cl
Category: inactive
--
Chemical smiles: CCOc1ccc(-c2nnc3c4cc(OC)c(OC)cc4n(Cc4ccc(F)cc4)cc2-3)cc1
Category: inactive
--
Chemical smiles: Cc1ccc(-n2ncc3c(N4CCN(c5ccccc5)CC4)ncnc32)cc1
Category: inactive
--
Chemical smiles: CC(=O)c1ccc(N2CCN(c3ncnc4c3cnn4-c3ccc(C)cc3C)CC2)cc1
Category: inactive
--
Chemical smiles: COc1cccc(OC)c1-c1nc(C(=O)N[C@@H](CC(C)C)C(=O)O)cn1-c1ccnc2cc(Cl)ccc12
Category: inactive
--
Chemical smiles: CC(C)C[C@H](NC(=O)c1cn(-c2ccnc3ccccc23)c2ccccc12)C(=O)O
Category: inactive
--
Chemical smiles: Cc1ccc(C)c(-n2ncc3c(N4CCN(c5ccccc5)CC4)ncnc32)c1
Category: inactive
--
Chemical smiles: CCCSc1nc2cc(OC)c(OC)cc2c(=N)n1Cc1ccccc1Cl
Category: inactive
--
Chemical smiles: COc1ccc(/C=N/Nc2nc(-c3ccc(S(=O)(=O)N(C)C)cc3)cs2)cc1OC
Category: inactive
--
Chemical smiles: COc1cccc(OC)c1-c1cc(C(=O)N[C@@H](CC(C)C)C(=O)O)nn1-c1ccnc2cc(Cl)ccc12
Category: inactive
--
Chemical smiles: COc1cc2nc(-c3ccccc3)nc(N3CCN(c4ccc(Cl)cc4)CC3)c2cc1OC
Category: inactive
--
Chemical smiles: COc1cc2c3nnc(-c4ccc(F)cc4)c-3cn(Cc3ccccc3)c2cc1OC
Category: active
--
Chemical smiles: COc1cc2c3nnc(-c4ccc(Cl)cc4)c-3cn(Cc3ccccc3)c2cc1OC
Category: active
--
Chemical smiles: COc1cc2c3nnc(-c4ccc(C)c(C)c4)c-3cn(Cc3ccc(C)cc3)c2cc1OC
Category: inactive
--
Chemical smiles: COc1ccc(-c2nnc3c4cc(OC)c(OC)cc4n(Cc4ccccc4)cc2-3)cc1
Category: inactive
--
Chemical smiles: Cc1ccc(-n2ncc3c(N4CCN(c5ccccc5Cl)CC4)ncnc32)c(C)c1
Category: inactive
--
Chemical smiles: COc1ccc(/C=N/Nc2nc(-c3ccc(S(=O)(=O)N(C)C)cc3)cs2)cc1
Category: inactive
--
Chemical smiles: COc1ccc(Cn2c(SCc3cccc(C(F)(F)F)c3)nc3cc(OC)c(OC)cc3c2=N)cc1Cl
Category: inactive
--
Chemical smiles: COc1cccc(OC)c1-c1nc(C(=O)N[C@@H](CC(C)C)C(=O)O)cn1-c1ccncc1
Category: inactive
--
Chemical smiles: COc1cccc2c(C(=O)N[C@@H](CC(C)C)C(=O)O)cn(-c3ccnc4ccccc34)c12
Category: inactive
--
Chemical smiles: COc1ccc(-c2nc(C(=O)N[C@@H](CC(C)C)C(=O)O)cn2-c2ccnc3cc(Cl)ccc23)c(OC)c1
Category: inactive
--
Chemical smiles: Cc1cccc(-n2ncc3c(N4CCN(c5ccccc5)CC4)ncnc32)c1
Category: inactive
--
Chemical smiles: CCN(CC)c1ccc(/C=N/Nc2nc(-c3ccc(S(=O)(=O)N(C)C)cc3)cs2)cc1
Category: inactive
--
Chemical smiles: CC(C)C[C@H](NC(=O)c1cn(-c2ccnc3ccccc23)c2c(OCc3ccccc3)cccc12)C(=O)O
Category: inactive
--
Chemical smiles: Cc1ccc(Cn2cc3c(-c4ccc(F)cc4)nnc-3c3ccccc32)cc1
Category: inactive
--
Chemical smiles: COc1ccccc1-c1cc(C(=O)N[C@@H](CC(C)C)C(=O)O)nn1-c1ccnc2cc(Cl)ccc12
Category: inactive
--
Chemical smiles: COc1cc2nc(C3CCC3)nc(N3CCN(c4ccccc4OC)CC3)c2cc1OC
Category: inactive
--
Chemical smiles: COc1ccc(Cn2c(SCc3ccccc3)nc3cc(OC)c(OC)cc3c2=N)cc1Cl
Category: inactive
--
Chemical smiles: COc1cccc(OC)c1-c1nc(C(=O)N[C@@H](CC(C)C)C(=O)O)cn1-c1ccnc2ccccc12
Category: inactive
--
Chemical smiles: CN(C)S(=O)(=O)c1ccc(-c2csc(N/N=C/c3ccccc3)n2)cc1
Category: inactive
--
Chemical smiles: COc1ccccc1-c1cc(C(=O)N[C@@H](CC(C)C)C(=O)OC(C)(C)C)nn1-c1ccnc2cc(Cl)ccc12
Category: inactive
--
Chemical smiles: COc1cc2nc(C)nc(N3CCN(c4ccccc4OC)CC3)c2cc1OC
Category: inactive
--
Chemical smiles: CC(C)C[C@H](NC(=O)c1nc(-c2ccnc3ccccc23)c(-c2ccccc2)s1)C(=O)O
Category: inactive
--
Chemical smiles: COc1ccc(N2CCN(c3ncnc4c3cnn4-c3ccc(C)cc3C)CC2)cc1
Category: inactive
--
Chemical smiles: CCOc1ccc(-c2nnc3c4cc(OC)c(OC)cc4n(Cc4ccccc4)cc2-3)cc1
Category: inactive
--
Chemical smiles: Clc1cccc(-n2ncc3c(N4CCN(c5ccccc5)CC4)ncnc32)c1
Category: inactive
--
Chemical smiles: COc1cc2nc(C3CCC3)nc(N3CCN(c4ccccc4F)CC3)c2cc1OC
Category: inactive
--
Chemical smiles: Clc1ccccc1-n1ncc2c(N3CCN(c4ccccc4)CC3)ncnc21
Category: inactive
